- Test system: OVCAR-8 ovarian
- runDescription: NCI tumour cell line growth inhibition, 48 h; in the data active means GI50 below about 0.43 µM; inactive means the rest
Answer with one of the outcomes given here: active, inactive

Request: Each molecule tested received a call. Report the one for CCN1CCN(c2nc(C)cc(N(CCCNc3ccnc4cc(Cl)ccc34)Cc3ccco3)n2)CC1 .
Result: inactive

Request: Each molecule tested received a call. Report the one for CCNC(=O)CCCCC(=O)c1c(C)[nH]c(/C=C2\N=C(c3ccc[nH]3)C=C2OC)c1C .
Result: inactive

Request: Each molecule tested received a call. Report the one for CC(C)(C)n1cc(-c2ccnc(NCCCNS(=O)(=O)c3ccc(Cl)cc3)c2)c(-c2cccc(O)c2)n1 .
Result: inactive

Request: Each molecule tested received a call. Report the one for OCCCCC#Cc1ccccc1C#Cc1cccs1 .
Result: inactive

Request: Each molecule tested received a call. Report the one for CN(C)CCN1C(=O)c2cccc3c(-c4ccc5ncn(C6CCCCC6)c5c4)ccc(c23)C1=O .
Result: inactive

Request: Each molecule tested received a call. Report the one for Cc1[nH]ccc2cc3nc4ccccc4c3cc12 .
Result: inactive

Request: Each molecule tested received a call. Report the one for CN(C)S(=O)(=O)c1cccc(-c2nc3sc4c(c3c(=O)[nH]2)CCCC4)c1 .
Result: inactive

Request: Each molecule tested received a call. Report the one for COc1cc(/C=N/O)nc(-c2ccccn2)c1 .
Result: active

Request: Each molecule tested received a call. Report the one for CC(=O)[CH-]C(=O)c1ccccc1.CC(=O)[CH-]C(=O)c1ccccc1.CC12CC3(C)CC(C)(C1)CC([O-])(C2)C3.CC[O-].[Ti+4] .
Result: inactive

* * *

- Tested on: RPMI-8226 leukemia
- runDescription: NCI tumour cell line growth inhibition, 48 h; in the data active means GI50 below about 0.43 µM; inactive means the rest
Answer with one of the outcomes given here: active, inactive

Solved entries (count: 3):
INSERT INTO assay_data (compound, assignedclass) VALUES
  ('COc1cc2c(cc1-c1c(C)noc1C)ncc1[nH]c(=O)n([C@H](C)c3ccccn3)c12', 'active'),
  ('C[C@@H]1CCC2[C@@H](C)[C@H](OC(=O)CCC(=O)NCCNC(=O)Cc3cc(=O)oc4cc(N(C)C)ccc34)O[C@@H]3O[C@]4(C)CC[C@@H]1C23OO4 (stereo partly specified)', 'active'),
  ('C=C1C(=O)O[C@H]2[C@H]1CC/C(COC(=O)NCc1cccc(OC)c1)=C\CC[C@@]1(C)O[C@@H]21', 'inactive');

Request: Each compound tested received a call. Report the one for C#CCOc1cccc(Nc2ncnc3c2ncn3C2CCN(C(=O)CCl)C2)c1 (stereo unspecified) .
Result: inactive

Request: Each compound tested received a call. Report the one for COc1cccc2cc(N(C)c3nc(C)nc4ccsc34)ccc12 .
Result: active

* * *

Can you tell me log10 of TGI for the items I'm about to list?
- Test system: 786-0 renal
- runDescription: NCI tumour cell line growth inhibition, 48 h
Log10 applied to TGI; unit prior to transform: µM.

INSERT INTO results (molecule, propertyname, resultnumber) VALUES
  ('CCC[CH2][Sn]1([CH2]CCC)[O]CC([CH2][Sn]([c]2ccccc2)([c]2ccccc2)[c]2ccccc2)[O]1 (stereo not given)', 'log10 of TGI', 1.39);

State the recorded log10 of TGI for every item in the following list.
1. C=C(CN(CCN1CCOCC1)CC(=C)c1ccc(C(=O)Nc2ccccc2N)cc1)c1ccc(C(=O)Nc2ccccc2N)cc1
2. COc1cc(C2c3cc4c(cc3OC(N3CCOCC3)C2C)OCO4)cc(OC)c1OC (stereo not given)
3. NCCCn1c2c(c3ccc([N+](=O)[O-])cc3c1=O)C(=O)c1cc(Cl)ccc1-2
4. CS(=O)(=O)OC1CCN(C2(c3cccc(O)c3)CCCCC2)CC1
5. CC(C)[C@H](O)C(=O)N[C@H]1Cc2ccc3c(c2)[C@]24C5=C(N=C(O5)[C@H](C(C)C)NC1=O)c1nc(Cl)c(o1)-c1c(Cl)[nH]c5cccc(c15)-c1cccc2c1N[C@H]4O3
6. O=C(Nn1c2c(sc1=NC1CC1)C(=O)c1ccccc1C2=O)c1cc2ccc1CCc1ccc(cc1)CC2

Result:
1. 0.82
2. 1.46
3. -1.43
4. 1.97
5. 0.44
6. 0.90

State the recorded log10 of TGI for every item in the following list.
1. CN(C)Cc1cc(C(=O)/C=C/c2c(F)cccc2Cl)cc(CN(C)C)c1O
2. C#CCOc1cccc(Nc2ncnc3c2ncn3C2CCN(C(=O)CCl)C2)c1 (stereo not given)
3. CCCCCCCCCCC(CN(CC)CC)C(O)c1ccccc1 (stereo not given)
4. COc1ccc(Cn2cc3c(c2-c2ccccc2)CCc2cncnc2-3)cc1
5. CCN1CCN(c2nc(C)cc(N(CCCNc3ccnc4cc(Cl)ccc34)Cc3ccco3)n2)CC1
6. CN(/C(=N\O)c1ccccc1)c1ccccc1
7. CCCCCCCCC[C@@H]1C[C@@H]2CCC3C(C(=O)OCCCCNC(=O)OCc4ccccc4)=C(C)NC(=N1)N32 (stereo not given in full)
8. O=C1c2c(O)cccc2C(C(=O)CCCC(=O)C2c3cccc(O)c3C(=O)c3c(O)cccc32)c2cccc(O)c21

Result:
[1.29, 1.57, 0.50, 1.59, 0.62, 1.95, 0.51, 0.99]

State the recorded log10 of TGI for every item in the following list.
1. C/C(=N\Nc1ncnc2ccccc12)c1ccccn1
2. O=C(Nc1ccc([N+](=O)[O-])cc1)c1cc2ccccc2cc1O
3. COc1ccc(C2c3c(-c4ccccc4)nn(-c4ccccc4)c3Oc3ncn(N)c(=N)c32)cc1OC (stereo not given)

Result:
[1.10, 0.28, 0.48]

* * *

- Tested on: HCT-15 colon
- runDescription: NCI tumour cell line growth inhibition, 48 h
propertyName: TGI

Worked set:
INSERT INTO results (molecule, result) VALUES
  ('CCOC(=O)CC(=Nc1cc(C)on1)N(CC)CC', '> 100 µM'),
  ('CCC(c1nc2ccccc2c(=O)n1NC(=O)C(C)(C)C)C1(O)CCCCC1 (configuration not stated)', '> 100 µM');

State the recorded TGI for every item in the following list.
1. O=C1c2c(O)cccc2C(C(=O)CCCC(=O)C2c3cccc(O)c3C(=O)c3c(O)cccc32)c2cccc(O)c21
2. CCOC(=S)SC/C(=N\OC(C)(C)OC)c1ccccc1
3. O=C(/C=C/c1ccsc1)c1ccc(Cl)s1
4. CC(=O)O[C@H]1CC[C@H]2[C@@H]3CC[C@H]4Nc5c(cnn5S(C)(=O)=O)C[C@]4(C)[C@H]3CC[C@]12C
5. NC(=O)N/N=C1/CCCC/C1=C\c1ccccc1
6. O=c1cc(-c2ccc[nH]2)[nH]c2cc3c(cc12)OCO3

Result:
1. 1.38 µM
2. > 100 µM
3. > 100 µM
4. > 100 µM
5. > 100 µM
6. > 100 µM

* * *

- System: T-47D breast
- runDescription: NCI tumour cell line growth inhibition, 48 h
Please mark yes (1) if the recorded TGI is equal to or greater than 30 µM, and no (0) if it falls below.

Solved entries (count: 5):
INSERT INTO assay_data (compound, assignedclass) VALUES
  ('O=C(O)CCc1nc(-c2ccccc2)c(-c2ccccc2)o1', 'yes (1)'),
  ('Nc1nc(SCc2ccccc2[N+](=O)[O-])c2[nH]cnc2n1', 'yes (1)'),
  ('COc1ccc(Cn2c3c(c4c(O)cccc42)C(=O)c2ccccc2-3)cc1', 'yes (1)'),
  ('COC(=O)Nc1nc2ccc(NS(=O)(=O)c3ccc(F)cc3)cc2[nH]1', 'yes (1)'),
  ('CCOC(=O)c1[nH]n(-c2ccccc2)c(=O)c1C=NC(=S)C(N)=S', 'yes (1)');

Request: Dear colleague, could you confirm whether Cc1cc(NS(=O)(=O)c2ccc(NC(=O)c3cccc4c(NNc5ccc(S(N)(=O)=O)cc5)c5ccccc5nc34)cc2)no1 has TGI at or above 30 µM?
Result: yes (1)

Request: Dear colleague, could you confirm whether O=C(O)[C@H]1NC[C@@H]2ON=C(Br)[C@@H]21 has TGI at or above 30 µM?
Result: yes (1)

Request: Dear colleague, could you confirm whether O=C(O)C1Cc2ccccc2OC1=O (stereo unspecified) has TGI at or above 30 µM?
Result: yes (1)

Request: Dear colleague, could you confirm whether COc1ccc(C2c3c(-c4ccccc4)nn(-c4ccccc4)c3Oc3ncn(N)c(=N)c32)cc1OC (stereo unspecified) has TGI at or above 30 µM?
Result: no (0)

Request: Dear colleague, could you confirm whether OCCCCC#Cc1ccccc1C#Cc1cccs1 has TGI at or above 30 µM?
Result: no (0)

Request: Dear colleague, could you confirm whether Cc1ccc(-c2nc3n(c2/C=N\N=C(N)N)CCS3)cc1 has TGI at or above 30 µM?
Result: no (0)

* * *

- Test system: SF-268 CNS
- runDescription: NCI tumour cell line growth inhibition, 48 h
propertyName: TGI

INSERT INTO results (molecule, result) VALUES
  ('C=C(C)C1CCC2(CO)C(O)CC3(C)C(CCC4C5(C)CCC(O)C(C)(C)C5CCC43C)C12 (centres undefined)', '> 100 µM'),
  ('CO[C@H]1/C=C/C[C@H](C)[C@@H](C)S(=O)(=O)NC(=O)c2ccc3c(c2)N(C[C@@H]2CC[C@H]21)C[C@@]1(CCCc2cc(Cl)ccc21)CO3', '14 µM'),
  ('Cn1nc2ccc3nccc(NCCNCCCl)c3c2n1', '> 100 µM');

Continue with the next molecule.
Request: Return value of TGI for input CC(=O)O[C@@H]1CC2[C@@H](CCC3Cc4nc5c(nc4C[C@@]32C)CC2CC[C@@H]3C(CC[C@@]4(C)C3CC[C@@H]4C(C)CCCC(C)C)[C@@]2(C)C5)C2C[C@@H]3OC4(CCC(C)CO4)C(C)[C@@H]3[C@]21C (some centres undefined) , no commentary.
Result: > 100 µM
